Provenance of the data: ChEMBL document CHEMBL1961873

# key: entry, value: inhibition
- target of assay: Serine/threonine-protein kinase pim-2 (Homo sapiens) (UniProt Q9P1W9);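 note: reported value is the mean percent inhibition of PIM2, measured in the GSK PKIS kinase inhibitor set screen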
- Sequence (Q9P1W9 whole entry, looked up): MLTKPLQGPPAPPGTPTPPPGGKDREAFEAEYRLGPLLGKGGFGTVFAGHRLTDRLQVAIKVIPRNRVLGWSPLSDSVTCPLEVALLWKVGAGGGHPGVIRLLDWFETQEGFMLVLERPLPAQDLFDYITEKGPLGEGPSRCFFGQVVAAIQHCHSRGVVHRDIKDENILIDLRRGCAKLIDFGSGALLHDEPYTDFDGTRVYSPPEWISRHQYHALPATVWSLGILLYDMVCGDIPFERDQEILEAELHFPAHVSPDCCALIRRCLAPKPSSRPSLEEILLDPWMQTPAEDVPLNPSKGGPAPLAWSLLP
- conditions: at 0.1 µM
Note: unit % is implicit; provide only the numeric part.

Completed entries (count: 4):
Give a short answer stating reported inhibition for O=C(Nc1n[nH]c2nc(-c3ccco3)c(Br)cc12)C1CC1 . -0.2

Give a short answer stating reported inhibition for NS(=O)(=O)c1ccc(N/N=C2\C(=O)Nc3ccc(C(=O)NCCc4c[nH]cn4)cc32)cc1 . 3.79

Give a short answer stating reported inhibition for NC(=O)c1ccc(-c2nc(-c3ccccn3)c(-c3ccc4c(c3)OCO4)[nH]2)cc1 . 0.03

Give a short answer stating reported inhibition for COc1ccc2cc(-c3c(-c4ccncc4)nc(-c4ccc([S+](C)[O-])cc4)n3C)ccc2c1 (stereo not given) . -0.02

Further cases:
Give a short answer stating reported inhibition for COc1cc2ncn(-c3cc(O[C@@H](C)c4ccccc4Cl)c(C(N)=O)s3)c2cc1OC . -0.11

----------
- target of assay: Tyrosine-protein kinase JAK1 (Homo sapiens) (UniProt P23458);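 note: each value is a mean inhibition of JAK1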
- Sequence (P23458 whole entry): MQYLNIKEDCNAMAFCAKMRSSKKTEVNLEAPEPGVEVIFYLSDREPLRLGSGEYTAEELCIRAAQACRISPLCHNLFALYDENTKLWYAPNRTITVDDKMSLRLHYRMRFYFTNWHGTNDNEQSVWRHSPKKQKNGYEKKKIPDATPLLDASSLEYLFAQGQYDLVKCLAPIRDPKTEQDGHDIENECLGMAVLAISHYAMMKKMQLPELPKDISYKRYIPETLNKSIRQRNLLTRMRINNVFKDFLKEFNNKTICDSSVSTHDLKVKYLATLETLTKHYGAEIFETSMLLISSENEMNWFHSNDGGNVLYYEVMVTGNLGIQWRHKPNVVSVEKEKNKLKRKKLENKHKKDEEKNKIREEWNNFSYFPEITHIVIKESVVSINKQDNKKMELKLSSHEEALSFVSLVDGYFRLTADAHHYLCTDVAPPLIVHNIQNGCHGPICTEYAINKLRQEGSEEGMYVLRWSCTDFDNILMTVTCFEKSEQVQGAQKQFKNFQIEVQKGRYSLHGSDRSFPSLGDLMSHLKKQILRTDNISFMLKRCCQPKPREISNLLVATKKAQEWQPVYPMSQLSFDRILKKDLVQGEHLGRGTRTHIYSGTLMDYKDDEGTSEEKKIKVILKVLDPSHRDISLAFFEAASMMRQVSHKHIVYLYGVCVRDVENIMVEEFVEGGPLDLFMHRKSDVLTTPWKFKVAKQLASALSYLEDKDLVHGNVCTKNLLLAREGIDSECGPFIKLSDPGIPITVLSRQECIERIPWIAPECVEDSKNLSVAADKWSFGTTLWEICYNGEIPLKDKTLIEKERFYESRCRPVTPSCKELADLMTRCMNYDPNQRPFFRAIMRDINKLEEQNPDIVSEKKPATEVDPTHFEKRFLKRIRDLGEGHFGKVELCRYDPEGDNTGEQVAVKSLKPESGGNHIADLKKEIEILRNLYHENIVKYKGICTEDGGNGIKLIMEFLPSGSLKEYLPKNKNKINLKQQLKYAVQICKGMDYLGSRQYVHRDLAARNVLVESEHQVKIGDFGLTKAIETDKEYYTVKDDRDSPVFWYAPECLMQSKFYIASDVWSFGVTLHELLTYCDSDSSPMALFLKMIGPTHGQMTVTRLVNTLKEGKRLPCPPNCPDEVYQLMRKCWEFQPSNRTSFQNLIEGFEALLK
- conditions: at 1 µM
# key: entry, value: inhibition
Number plus unit, in that order.

Completed entries (count: 5):
Provide measured inhibition on Tyrosine-protein kinase JAK1 (Homo sapiens) (UniProt P23458) for COC(=O)Nc1nc2cc(Oc3cccc(NC(=O)Nc4cc(C(F)(F)F)ccc4F)c3)ccc2[nH]1 please. 4.36%

Provide measured inhibition on Tyrosine-protein kinase JAK1 (Homo sapiens) (UniProt P23458) for CC1=C(C(=O)Nc2ccc3[nH]ncc3c2)C(c2ccc3ccccc3c2)CC(=O)N1 (stereo unspecified) please. 29.5%

Provide measured inhibition on Tyrosine-protein kinase JAK1 (Homo sapiens) (UniProt P23458) for COc1ccc(-c2ccncc2)cc1C(N)=O please. 3.27%

Provide measured inhibition on Tyrosine-protein kinase JAK1 (Homo sapiens) (UniProt P23458) for CS(=O)(=O)CCNCc1nc(-c2ccc3ncnc(Nc4ccc(F)c(Cl)c4)c3c2)cs1 please. 4.25%

Provide measured inhibition on Tyrosine-protein kinase JAK1 (Homo sapiens) (UniProt P23458) for CCn1c(-c2nonc2N)nc2c(C#CC(C)(C)O)nc(OC[C@@H](N)c3ccccc3)cc21 please. 2.1%

Next compound, please.
Provide measured inhibition on Tyrosine-protein kinase JAK1 (Homo sapiens) (UniProt P23458) for NS(=O)(=O)c1cccc(-c2ccc3c(NC(=O)C4CC4)n[nH]c3c2)c1 please. -4.88%

----------
# key: entry, value: inhibition
- target of assay: Receptor tyrosine-protein kinase erbB-2 (Homo sapiens)
- conditions: at 1 µM
- Description: GSK_PKIS: ERBB2 mean inhibition at 1 uM [Nanosyn]
Note: unit % is implicit; provide only the numeric part.

Completed entries (count: 2):
Give a short answer stating reported inhibition for CS(=O)(=O)CCNCc1ccc(-c2ccc3ncnc(Nc4ccc(OCc5cccc(F)c5)c(C(F)(F)F)c4)c3c2)o1 . 7.46

Give a short answer stating reported inhibition for CCCN1CCC=C(c2ccc(Nc3nc(Nc4ccccc4C(N)=O)c4cc[nH]c4n3)c(C)c2)C1 . 3.15

Further cases:
Give a short answer stating reported inhibition for O=C1NC(=O)C(c2ccccc2Cl)=C1Nc1cccc(O)c1 . -0.2

Give a short answer stating reported inhibition for CCn1c(-c2nonc2N)nc2cnc(Oc3cccc(NC(=O)c4ccc(OCCN5CCOCC5)cc4)c3)cc21 . 2

Give a short answer stating reported inhibition for Nc1ncnc2occ(-c3ccc(NC(=O)Nc4cc(C(F)(F)F)cc(C(F)(F)F)c4)cc3)c12 . -3.43
